Protocol: In vitro metabolic stability in rat liver microsomes
Type: in vitro ADME
Applied Conditions: Sprague-Dawley, rat, liver microsomes, pH 7.4
Quick reference: half-life of the listed items.
Measurement Type: half-life (h)

compound="O=C(CCCCCCNC(=O)[C@H]1CCCN(C(=O)c2ccc(NC(=O)Nc3cc(F)cc(F)c3)c(F)c2)C1)NO [Compound 28j]" reported=0.939
compound="O=C(CCCCCCNC(=O)[C@H]1CCCN(C(=O)c2ccc(NC(=O)Nc3ccc(Cl)c(F)c3)c(F)c2)C1)NO [Compound 28g]" reported=2.28

---

Protocol: In vitro metabolic stability in rat liver microsomes
Format: in vitro ADME
Applied Conditions: incubation 30 min, 37 °C, NADPH
Quick reference: metabolic stability in RLM, column 30 of the listed items.
Measurement Type: metabolic stability in RLM, column 30

compound="CC12CC3CC(C)(C1)CC(Nc1c(Nc4ccc(CN5CCC[C@H](C(=O)NCCCCCCC(=O)NO)C5)cc4F)c(=O)c1=O)(C3)C2 [Compound 34d]" reported=73.29
compound="O=C(CCCCCCNC(=O)[C@H]1CCCN(C(=O)c2ccc(NC(=O)Nc3cc(F)cc(F)c3)c(F)c2)C1)NO [Compound 28j]" reported=73.00
compound="C[C@]12C[C@@H]3C[C@](C)(C1)C[C@@](NC(=O)Nc1ccc(CN4CCC[C@H](C(=O)NCCCCCCC(=O)NO)C4)cc1F)(C3)C2 [Compound 16d]" reported=79.33
compound="O=C(CCCCCCNC(=O)[C@H]1CCCN(C(=O)c2ccc(NC(=O)Nc3ccc(Cl)c(F)c3)c(F)c2)C1)NO [Compound 28g]" reported=83.80

---

Quick reference: IC50 of the listed items.
Tested Target: HDAC1 (Homo sapiens)
Sequence (Q13547 whole entry): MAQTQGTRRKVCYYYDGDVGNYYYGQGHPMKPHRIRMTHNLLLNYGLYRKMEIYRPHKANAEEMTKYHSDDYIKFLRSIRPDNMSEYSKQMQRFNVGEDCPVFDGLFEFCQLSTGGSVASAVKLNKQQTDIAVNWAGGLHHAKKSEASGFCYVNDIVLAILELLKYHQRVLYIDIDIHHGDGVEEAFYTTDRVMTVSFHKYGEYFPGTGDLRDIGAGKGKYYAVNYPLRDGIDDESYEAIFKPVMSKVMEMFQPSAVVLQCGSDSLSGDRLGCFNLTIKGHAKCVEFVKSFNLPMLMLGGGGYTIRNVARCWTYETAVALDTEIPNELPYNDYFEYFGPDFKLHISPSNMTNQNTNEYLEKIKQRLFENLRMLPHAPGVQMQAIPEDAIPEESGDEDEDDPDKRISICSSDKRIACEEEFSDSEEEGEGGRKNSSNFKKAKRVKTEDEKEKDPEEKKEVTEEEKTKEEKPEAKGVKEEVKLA
Protocol: HDAC enzyme-based fluorogenic assay, HDAC1
Type: biochemical
Applied Conditions: read-out: HDAC1 IC50; mean of at least three experiments
Measurement Type: IC50 (µM)

compound="CC12CC3CC(C)(C1)CC(Nc1c(Nc4ccc(C(=O)N5CCC[C@H](C(=O)NCCCCCCC(=O)NO)C5)cc4)c(=O)c1=O)(C3)C2 [Compound 40d]" endpoint_unit=µM reported=0.415
compound="C[C@]12CC3CC(Nc4c(Nc5ccc(C(=O)N6CCC[C@H](C(=O)NCCCCCC(=O)NO)C6)cc5)c(=O)c4=O)(C1)C[C@@](C)(C3)C2 [Compound 40c]" endpoint_unit=µM reported=1.03

---

Protocol: Pharmacokinetic study in rats
Assay type: in vivo, SD rats
Applied Conditions: both, Sprague-Dawley, rat, plasma, iv, 10 mg/kg
Measurement Type: clearance (mL/min)

compound="O=C(CCCCCCNC(=O)[C@H]1CCCN(C(=O)c2ccc(NC(=O)Nc3ccc(Cl)c(F)c3)c(F)c2)C1)NO [Compound 28g]" measurement_type=clearance reported=2.67
compound="O=C(CCCCCCNC(=O)[C@H]1CCCN(C(=O)c2ccc(NC(=O)Nc3cc(F)cc(F)c3)c(F)c2)C1)NO [Compound 28j]" measurement_type=clearance reported=3

---

Quick reference: IC50 of the listed items.
Tested Target: HDAC6 (Homo sapiens, UniProt Q9UBN7)
Sequence (Q9UBN7 whole entry): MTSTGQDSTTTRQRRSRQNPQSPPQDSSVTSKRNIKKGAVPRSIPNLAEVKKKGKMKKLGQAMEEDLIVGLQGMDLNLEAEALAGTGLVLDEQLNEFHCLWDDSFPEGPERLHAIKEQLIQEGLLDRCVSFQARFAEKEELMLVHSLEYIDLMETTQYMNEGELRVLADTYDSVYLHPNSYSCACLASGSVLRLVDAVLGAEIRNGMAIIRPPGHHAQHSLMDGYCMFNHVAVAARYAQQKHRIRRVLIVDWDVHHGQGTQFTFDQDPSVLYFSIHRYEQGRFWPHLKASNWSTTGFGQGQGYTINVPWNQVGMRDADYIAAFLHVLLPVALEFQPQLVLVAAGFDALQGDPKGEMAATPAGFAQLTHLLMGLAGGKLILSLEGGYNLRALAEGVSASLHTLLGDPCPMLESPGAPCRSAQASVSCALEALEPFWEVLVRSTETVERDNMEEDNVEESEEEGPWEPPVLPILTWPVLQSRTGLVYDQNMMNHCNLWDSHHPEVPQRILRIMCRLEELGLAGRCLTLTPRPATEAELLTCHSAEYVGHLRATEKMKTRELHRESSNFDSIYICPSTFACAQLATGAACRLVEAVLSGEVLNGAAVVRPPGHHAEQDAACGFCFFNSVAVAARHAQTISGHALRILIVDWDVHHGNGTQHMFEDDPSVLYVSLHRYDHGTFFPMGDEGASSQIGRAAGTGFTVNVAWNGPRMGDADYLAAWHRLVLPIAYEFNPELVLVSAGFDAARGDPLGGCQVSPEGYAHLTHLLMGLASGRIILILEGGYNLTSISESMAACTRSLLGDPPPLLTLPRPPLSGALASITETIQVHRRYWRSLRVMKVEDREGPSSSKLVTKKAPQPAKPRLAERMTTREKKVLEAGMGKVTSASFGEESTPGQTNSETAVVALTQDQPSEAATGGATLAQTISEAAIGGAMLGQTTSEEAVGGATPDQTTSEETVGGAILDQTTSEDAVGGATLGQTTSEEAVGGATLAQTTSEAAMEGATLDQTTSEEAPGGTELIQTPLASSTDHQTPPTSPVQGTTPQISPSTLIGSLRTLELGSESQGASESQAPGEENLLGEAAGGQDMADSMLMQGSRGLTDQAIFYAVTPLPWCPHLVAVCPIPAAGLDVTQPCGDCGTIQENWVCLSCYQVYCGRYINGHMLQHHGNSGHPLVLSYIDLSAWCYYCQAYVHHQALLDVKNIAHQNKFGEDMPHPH
Protocol: HDAC enzyme-based fluorogenic assay, HDAC6
Format: biochemical
Applied Conditions: read-out: HDAC6 IC50; mean of at least three experiments
Measurement Type: IC50 (nM)

compound="C[C@]12CC3CC(Nc4c(Nc5ccc(C(=O)N6CCC[C@H](C(=O)NCCCCCC(=O)NO)C6)cc5)c(=O)c4=O)(C1)C[C@@](C)(C3)C2 [Compound 40c]" tested_target="HDAC6 (Homo sapiens, UniProt Q9UBN7)" endpoint_unit=nM reported=282
compound="CC12CC3CC(C)(C1)CC(Nc1c(Nc4ccc(C(=O)N5CCC[C@H](C(=O)NCCCCCCC(=O)NO)C5)cc4)c(=O)c1=O)(C3)C2 [Compound 40d]" tested_target="HDAC6 (Homo sapiens, UniProt Q9UBN7)" endpoint_unit=nM reported=162
